Target: MAO-A (Homo sapiens, UniProt P21397)
Sequence (P21397 whole entry): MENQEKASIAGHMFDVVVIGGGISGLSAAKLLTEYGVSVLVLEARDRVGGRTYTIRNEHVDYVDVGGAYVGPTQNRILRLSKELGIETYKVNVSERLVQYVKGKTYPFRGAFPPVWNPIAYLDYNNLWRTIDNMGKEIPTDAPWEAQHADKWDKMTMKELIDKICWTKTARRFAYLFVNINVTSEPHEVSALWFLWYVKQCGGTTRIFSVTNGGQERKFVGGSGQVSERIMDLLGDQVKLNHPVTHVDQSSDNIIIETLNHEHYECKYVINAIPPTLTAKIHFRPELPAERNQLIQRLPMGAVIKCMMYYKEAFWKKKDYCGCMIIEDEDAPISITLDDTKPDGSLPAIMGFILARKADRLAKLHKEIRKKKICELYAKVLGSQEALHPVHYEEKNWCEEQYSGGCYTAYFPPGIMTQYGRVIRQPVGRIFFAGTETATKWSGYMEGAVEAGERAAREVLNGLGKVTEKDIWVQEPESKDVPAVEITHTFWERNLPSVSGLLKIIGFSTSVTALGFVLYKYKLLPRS
quantity: pIC50
The value called pIC50 is obtained by taking minus log10 of the concentration in mol/L.

Query :: Param readout = pIC50; param system = MAO-A (Homo sapiens, UniProt P21397); param query = C=C(C)[C@H](O)[C@@H](OCC)c1c(OC)ccc(/C=C/C(=O)O[C@H](Cc2c(OC)ccc3ccc(=O)oc23)C(C)(C)O)c1O ; response: value
Result :: 4.58

====

Target: MAO-B (Homo sapiens, UniProt P27338)
Sequence (P27338 1-520): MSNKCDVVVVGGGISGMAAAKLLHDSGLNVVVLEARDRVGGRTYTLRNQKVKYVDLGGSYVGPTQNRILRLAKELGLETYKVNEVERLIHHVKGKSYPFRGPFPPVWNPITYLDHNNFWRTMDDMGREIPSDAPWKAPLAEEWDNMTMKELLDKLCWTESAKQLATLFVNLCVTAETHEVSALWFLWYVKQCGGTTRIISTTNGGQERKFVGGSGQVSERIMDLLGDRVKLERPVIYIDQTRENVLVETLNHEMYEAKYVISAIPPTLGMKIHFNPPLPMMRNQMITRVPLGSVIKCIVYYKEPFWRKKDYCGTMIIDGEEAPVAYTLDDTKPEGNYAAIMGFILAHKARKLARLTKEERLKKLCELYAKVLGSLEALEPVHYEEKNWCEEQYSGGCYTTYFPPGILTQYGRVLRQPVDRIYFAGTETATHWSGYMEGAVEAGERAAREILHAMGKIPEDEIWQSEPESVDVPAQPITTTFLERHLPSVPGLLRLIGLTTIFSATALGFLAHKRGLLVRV
Assay: biochemical
Conditions: mean ± S.E.M. from three experiments
quantity: pIC50
The value called pIC50 is obtained by taking minus log10 of the concentration in mol/L.

Query :: pIC50 for C=C(C)[C@H](O)[C@@H](OCC)c1c(OC)ccc(/C=C/C(=O)O[C@H](Cc2c(OC)ccc3ccc(=O)oc23)C(C)(C)O)c1O ?
Result :: 6.81
